Measured log10 of IC50 by item
Target: recombinant Human CYP17 enzyme (17-20 lyase) (Homo sapiens, UniProt P05093)
Construct: made in house; host or cells: A549 cells, adenoviral expression system; purified cell membrane preparations
Sequence (P05093 whole entry): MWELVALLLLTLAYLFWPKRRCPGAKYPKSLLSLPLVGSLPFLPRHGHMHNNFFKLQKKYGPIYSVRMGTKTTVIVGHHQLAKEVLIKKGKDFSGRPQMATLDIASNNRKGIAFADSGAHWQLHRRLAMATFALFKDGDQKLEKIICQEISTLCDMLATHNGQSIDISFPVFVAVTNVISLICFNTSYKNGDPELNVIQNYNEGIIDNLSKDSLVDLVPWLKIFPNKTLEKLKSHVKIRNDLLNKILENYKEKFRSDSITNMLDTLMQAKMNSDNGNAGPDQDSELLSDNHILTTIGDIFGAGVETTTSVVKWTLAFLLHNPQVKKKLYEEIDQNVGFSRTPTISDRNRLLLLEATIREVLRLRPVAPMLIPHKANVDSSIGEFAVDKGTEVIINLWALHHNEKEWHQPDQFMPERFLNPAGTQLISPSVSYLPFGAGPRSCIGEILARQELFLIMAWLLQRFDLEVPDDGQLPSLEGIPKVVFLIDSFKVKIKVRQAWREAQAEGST
Test: Cytochrome P450, 17-20 lyase (CYP17-lyase) assay, 17-α-hydroxy pregnenolone [21-3H] as substrate
Format: biochemical
Details: human CYP17 lyase; substrate 0.25 μM; room temperature, 90 minutes; read-out: Lyase IC 50 nM Human
attribute_measured: log10 of IC50 (log10 of the value in nM)

COc1ccc2c(c1)C(=O)N(c1cnccc1C)CC2 [Example 26A] = 1.23
O=c1c2cc(C(F)(F)F)ccc2ccn1-c1cncc(F)c1 [Example 68A] = 2.45
CC1Cc2ccc(C(F)(F)F)cc2C(=O)N1c1cnccc1C(F)(F)F (stereo not drawn) [Example 70A] = 2.87
O=C1c2cc(C(F)(F)F)ccc2CCN1c1cnccc1C(F)(F)F [Example 21A] = 1.75
COc1cc2c(cc1Cl)C(=O)N(c1cnccc1C1CC1)CC2 [Example 89A] = 1.00
O=C1c2c(ccc(C(F)(F)F)c2F)CCN1c1cnccc1C(F)(F)F [Example 77A] = 2.22
O=c1c2c(ccn1-c1cnccc1C(F)(F)F)[nH]c1ccc(F)cc12 [Example 64A] = 2.92
Cc1ccncc1N1CCc2c([nH]c3ccccc23)C1=O [Example 61A] = 3.18
Cc1ccncc1N1CC(C)(C)c2ccc(C(F)(F)F)cc2C1=O [Example 20A] = 2.57
N#Cc1cc2c(cc1Cl)C(=O)N(c1cnccc1C1CC1)CC2 [Example 91A] = 1.04
Cc1ccncc1N1CCc2ccc(F)c(Cl)c2C1=O [Example 34A] = 2.17
Cc1ccncc1N1CCc2ccncc2C1=O [Example 65A] = 3.06
